Origin of the recorded values: ChEMBL document CHEMBL1139947

Reported EC50, Estrogen receptor (Homo sapiens, UniProt P03372).
Measurement label: EC50 (nM)

> print(dat)
                      smiles.representation                     target.or.test.system  comparator  number
1  C[C@]12CC[C@H]3[C@@H](CC4C5=CC(=O)CC[C@@]53C[C@H]4O)[C@@H]1CC[C@@H]2O  Estrogen receptor (Homo sapiens, UniProt P03372)           >    1000
2  C[C@]12CC[C@H]3[C@@H](CC=C4[C@H]5CC[C@]43CC[C@H]5O)[C@@H]1CC[C@@H]2O  Estrogen receptor (Homo sapiens, UniProt P03372)           =     435
3  C[C@]12CC[C@H]3[C@@H](CC=C4[C@H]5CC[C@]43CC[C@@H]5O)[C@@H]1CC[C@@H]2O  Estrogen receptor (Homo sapiens, UniProt P03372)           =      44
4  C[C@]12CC[C@H]3[C@@H](CC=C4[C@@H]5C(=O)CC[C@@]43C[C@@H]5O)[C@@H]1CC[C@@H]2O  Estrogen receptor (Homo sapiens, UniProt P03372)           >    1000
5  C[C@]12CC[C@H]3[C@@H](CC[C@H]4[C@H]5CCC[C@]43CC[C@@H]5O)[C@@H]1CC[C@@H]2O  Estrogen receptor (Homo sapiens, UniProt P03372)           =    1300
6  C/C=C\[C@]12CC[C@H](O)CC1=CC[C@H]1[C@@H]3CC[C@H](O)[C@@]3(C)CC[C@@H]12  Estrogen receptor (Homo sapiens, UniProt P03372)           =     344
